Activin receptor type-2A (Homo sapiens, UniProt P27037): recorded pIC50 for assorted compounds
Sequence (P27037 whole entry): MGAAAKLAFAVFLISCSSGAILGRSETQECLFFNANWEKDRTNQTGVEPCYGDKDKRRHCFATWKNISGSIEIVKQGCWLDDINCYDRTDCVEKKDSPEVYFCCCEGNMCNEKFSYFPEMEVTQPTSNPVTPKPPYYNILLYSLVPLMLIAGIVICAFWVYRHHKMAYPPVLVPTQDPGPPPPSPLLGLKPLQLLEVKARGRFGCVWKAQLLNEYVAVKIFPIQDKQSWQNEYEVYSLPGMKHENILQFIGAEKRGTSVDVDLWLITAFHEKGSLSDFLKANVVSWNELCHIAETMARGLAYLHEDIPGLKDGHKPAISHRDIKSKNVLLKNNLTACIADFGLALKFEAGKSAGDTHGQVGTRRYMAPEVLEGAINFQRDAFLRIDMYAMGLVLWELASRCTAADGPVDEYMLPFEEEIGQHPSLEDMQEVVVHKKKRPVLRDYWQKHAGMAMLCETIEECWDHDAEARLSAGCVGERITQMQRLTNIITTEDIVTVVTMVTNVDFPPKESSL
One number for each entry, as −log10 of the molar value.

Given item CN1C(=O)[C@@H](N2CCc3cn(Cc4ccccc4)nc3C2=O)COc2ccccc21 [TP-030-1] , the value recorded as its pIC50 is 6.00

API: the following record is the query input.
Item: CN1C(=O)[C@@H](N2CCc3cn(CC4CCS(=O)(=O)CC4)nc3C2=O)COc2ccccc21 [TP-030n] | pIC50: 6.00

====

Let's go through some IC50 measurements on Serine/threonine-protein kinase PAK 5 (Homo sapiens) together.
Sequence (Q9P286 whole entry): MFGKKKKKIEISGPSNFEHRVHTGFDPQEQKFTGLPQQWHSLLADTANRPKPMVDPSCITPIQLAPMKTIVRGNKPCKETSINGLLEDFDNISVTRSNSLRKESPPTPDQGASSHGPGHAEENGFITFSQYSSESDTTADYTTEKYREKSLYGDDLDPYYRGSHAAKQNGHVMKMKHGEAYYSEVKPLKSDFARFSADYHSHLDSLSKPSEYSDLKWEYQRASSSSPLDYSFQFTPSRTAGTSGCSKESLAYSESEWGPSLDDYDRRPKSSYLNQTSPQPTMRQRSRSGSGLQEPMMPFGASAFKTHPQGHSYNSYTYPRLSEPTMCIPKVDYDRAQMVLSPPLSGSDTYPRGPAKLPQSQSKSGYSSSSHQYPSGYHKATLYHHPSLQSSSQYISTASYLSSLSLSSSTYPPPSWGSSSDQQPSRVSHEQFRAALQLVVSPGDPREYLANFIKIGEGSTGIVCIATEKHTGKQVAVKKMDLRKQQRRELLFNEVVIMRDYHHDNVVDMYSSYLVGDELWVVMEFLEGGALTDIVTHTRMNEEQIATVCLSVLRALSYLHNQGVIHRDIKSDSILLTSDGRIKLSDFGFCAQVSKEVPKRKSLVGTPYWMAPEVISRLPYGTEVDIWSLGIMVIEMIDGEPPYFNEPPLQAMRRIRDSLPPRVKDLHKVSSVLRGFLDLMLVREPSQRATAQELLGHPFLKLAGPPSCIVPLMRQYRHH
Numbers only, in nM.

Noted for CN1C(=O)[C@@H](N2CCc3cn(CC4CCS(=O)(=O)CC4)nc3C2=O)COc2ccccc21 [TP-030n] : its IC50 reads 1000

Note: attention shifts to another entry.
Recorded IC50 (compound CN1C(=O)[C@@H](N2CCc3cn(Cc4ccccc4)nc3C2=O)COc2ccccc21 ): 1000

====

Target: UniProt P21802
Sequence (P21802 whole entry): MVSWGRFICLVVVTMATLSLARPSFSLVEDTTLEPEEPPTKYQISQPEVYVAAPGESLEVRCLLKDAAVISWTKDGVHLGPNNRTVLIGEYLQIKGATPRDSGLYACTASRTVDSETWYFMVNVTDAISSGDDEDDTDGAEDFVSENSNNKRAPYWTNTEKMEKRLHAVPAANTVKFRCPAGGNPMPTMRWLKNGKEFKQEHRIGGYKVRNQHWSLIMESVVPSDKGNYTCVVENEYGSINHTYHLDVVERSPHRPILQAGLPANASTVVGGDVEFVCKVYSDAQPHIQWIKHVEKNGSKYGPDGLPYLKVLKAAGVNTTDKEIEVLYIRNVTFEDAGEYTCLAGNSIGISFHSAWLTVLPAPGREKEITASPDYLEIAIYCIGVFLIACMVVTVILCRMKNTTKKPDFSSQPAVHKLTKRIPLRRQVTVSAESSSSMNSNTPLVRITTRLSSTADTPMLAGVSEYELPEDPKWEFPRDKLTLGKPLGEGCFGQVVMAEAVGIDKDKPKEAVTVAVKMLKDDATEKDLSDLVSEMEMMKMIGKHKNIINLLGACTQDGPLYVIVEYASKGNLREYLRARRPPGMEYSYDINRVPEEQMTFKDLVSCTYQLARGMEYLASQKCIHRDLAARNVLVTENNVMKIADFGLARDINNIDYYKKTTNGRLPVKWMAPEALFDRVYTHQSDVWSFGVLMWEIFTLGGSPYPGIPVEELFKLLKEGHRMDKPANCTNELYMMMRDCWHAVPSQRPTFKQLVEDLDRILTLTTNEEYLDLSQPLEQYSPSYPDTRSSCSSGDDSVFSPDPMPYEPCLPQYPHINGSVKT
Test: FGFR2(FGF2LGF1) Takeda global kinase panel
MEASUREMENT LABEL: IC50 (nM)
One number for each entry, in nM.

The molecule identified as CN1C(=O)[C@@H](N2CCc3cn(CC4CCS(=O)(=O)CC4)nc3C2=O)COc2ccccc21 [TP-030n] registered its IC50 at 1000

====

Hi! I'm sharing some IC50 results obtained with Serine/threonine-protein kinase 26 (Homo sapiens).
Sequence (Q9P289 whole entry): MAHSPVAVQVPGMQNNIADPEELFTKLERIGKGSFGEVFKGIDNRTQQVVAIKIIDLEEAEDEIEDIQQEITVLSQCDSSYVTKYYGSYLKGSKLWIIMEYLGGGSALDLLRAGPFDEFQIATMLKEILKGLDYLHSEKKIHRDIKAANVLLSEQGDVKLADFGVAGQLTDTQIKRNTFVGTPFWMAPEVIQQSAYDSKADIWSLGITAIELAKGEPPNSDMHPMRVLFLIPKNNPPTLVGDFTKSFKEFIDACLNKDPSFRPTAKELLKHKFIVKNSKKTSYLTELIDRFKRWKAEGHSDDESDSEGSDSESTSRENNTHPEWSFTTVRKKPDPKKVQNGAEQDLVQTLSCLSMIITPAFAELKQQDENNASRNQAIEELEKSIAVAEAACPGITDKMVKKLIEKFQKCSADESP
Entry format: amount then unit.

CN1C(=O)[C@@H](N2CCc3cn(Cc4ccccc4)nc3C2=O)COc2ccccc21 has a reported IC50 of 1 µM

# next compound below
GET /value?item= CN1C(=O)[C@@H](N2CCc3cn(CC4CCS(=O)(=O)CC4)nc3C2=O)COc2ccccc21 [TP-030n] &field=IC50 returns 1 µM

====

Heads up, these compounds all have pIC50 values measured for Cyclin-dependent kinase 13 (Homo sapiens).
Numbers only, as −log10 of the molar value.

pIC50 in this record for CN1C(=O)[C@@H](N2CCc3cn(Cc4ccccc4)nc3C2=O)COc2ccccc21 : 6.00

Turning now to a further compound:
What the record says about CN1C(=O)[C@@H](N2CCc3cn(CC4CCS(=O)(=O)CC4)nc3C2=O)COc2ccccc21 [TP-030n] : pIC50 is 6.00

====

Molecular target: Angiopoietin-1 receptor (Homo sapiens, UniProt Q02763)
Sequence (Q02763 whole entry): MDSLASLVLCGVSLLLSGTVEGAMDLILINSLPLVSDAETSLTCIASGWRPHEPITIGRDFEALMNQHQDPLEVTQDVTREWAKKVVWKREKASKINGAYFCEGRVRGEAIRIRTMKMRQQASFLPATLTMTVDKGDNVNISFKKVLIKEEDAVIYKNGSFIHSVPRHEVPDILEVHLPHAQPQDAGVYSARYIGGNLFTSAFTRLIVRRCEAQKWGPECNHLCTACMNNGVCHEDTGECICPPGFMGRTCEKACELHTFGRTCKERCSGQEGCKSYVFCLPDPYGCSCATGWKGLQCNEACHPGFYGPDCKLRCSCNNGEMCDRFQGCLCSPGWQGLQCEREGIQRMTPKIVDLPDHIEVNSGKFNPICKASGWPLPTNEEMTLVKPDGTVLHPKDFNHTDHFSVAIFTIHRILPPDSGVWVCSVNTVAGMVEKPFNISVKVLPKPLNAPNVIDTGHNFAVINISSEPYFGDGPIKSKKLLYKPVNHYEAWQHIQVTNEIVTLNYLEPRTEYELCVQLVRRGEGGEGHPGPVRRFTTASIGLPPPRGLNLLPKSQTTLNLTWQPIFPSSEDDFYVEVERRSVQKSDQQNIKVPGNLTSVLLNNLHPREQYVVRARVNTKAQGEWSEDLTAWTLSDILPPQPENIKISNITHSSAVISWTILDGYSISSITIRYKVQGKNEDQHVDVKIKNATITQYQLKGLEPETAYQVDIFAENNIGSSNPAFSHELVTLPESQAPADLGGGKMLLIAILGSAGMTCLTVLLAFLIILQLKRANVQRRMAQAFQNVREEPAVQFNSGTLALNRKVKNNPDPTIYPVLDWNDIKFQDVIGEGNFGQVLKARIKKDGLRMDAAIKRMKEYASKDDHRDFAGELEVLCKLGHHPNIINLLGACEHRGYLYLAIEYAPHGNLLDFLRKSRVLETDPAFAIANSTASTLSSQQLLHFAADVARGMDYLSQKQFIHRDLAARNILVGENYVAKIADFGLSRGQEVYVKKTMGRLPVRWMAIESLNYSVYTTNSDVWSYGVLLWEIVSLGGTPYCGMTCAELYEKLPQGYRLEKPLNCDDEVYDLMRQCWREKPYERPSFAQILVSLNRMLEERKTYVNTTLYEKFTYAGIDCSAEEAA
MEASUREMENT LABEL: pIC50
One number for each entry, as −log10 of the molar value.

Documented pIC50 of CN1C(=O)[C@@H](N2CCc3cn(CC4CCS(=O)(=O)CC4)nc3C2=O)COc2ccccc21 [TP-030n] : 6.00

====

Exercise: state measured pIC50 for each of the compounds provided.
Target: Serine/threonine-protein kinase MARK1 (Homo sapiens, UniProt Q9P0L2)
Sequence (Q9P0L2 whole entry): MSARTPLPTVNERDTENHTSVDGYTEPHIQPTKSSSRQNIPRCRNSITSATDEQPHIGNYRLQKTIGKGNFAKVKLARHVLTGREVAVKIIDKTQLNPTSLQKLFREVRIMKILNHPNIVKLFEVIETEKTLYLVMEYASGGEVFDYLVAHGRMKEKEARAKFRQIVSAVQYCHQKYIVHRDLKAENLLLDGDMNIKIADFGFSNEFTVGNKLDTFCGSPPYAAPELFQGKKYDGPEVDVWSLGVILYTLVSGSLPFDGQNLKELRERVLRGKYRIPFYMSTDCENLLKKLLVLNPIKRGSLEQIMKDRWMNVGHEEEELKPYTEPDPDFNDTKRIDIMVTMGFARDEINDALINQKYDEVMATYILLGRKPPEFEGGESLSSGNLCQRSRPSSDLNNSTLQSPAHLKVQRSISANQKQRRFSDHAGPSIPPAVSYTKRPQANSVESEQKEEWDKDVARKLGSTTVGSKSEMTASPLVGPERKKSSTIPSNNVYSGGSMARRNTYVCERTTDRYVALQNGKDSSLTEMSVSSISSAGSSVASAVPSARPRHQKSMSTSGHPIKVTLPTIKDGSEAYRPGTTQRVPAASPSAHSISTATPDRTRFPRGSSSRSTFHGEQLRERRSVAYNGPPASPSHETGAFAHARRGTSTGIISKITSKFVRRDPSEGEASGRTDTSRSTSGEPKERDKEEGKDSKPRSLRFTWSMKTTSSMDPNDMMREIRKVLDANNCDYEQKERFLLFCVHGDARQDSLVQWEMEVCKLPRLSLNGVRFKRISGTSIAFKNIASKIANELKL
Answers are plain numbers, as −log10 of the molar value.

The value of pIC50 recorded for CN1C(=O)[C@@H](N2CCc3cn(Cc4ccccc4)nc3C2=O)COc2ccccc21 [TP-030-1] when tested on Serine/threonine-protein kinase MARK1 (Homo sapiens, UniProt Q9P0L2) reads 6.00

Further cases:
pIC50 value, target or system Serine/threonine-protein kinase MARK1 (Homo sapiens, UniProt Q9P0L2), for CN1C(=O)[C@@H](N2CCc3cn(CC4CCS(=O)(=O)CC4)nc3C2=O)COc2ccccc21 [TP-030n] : 6.00

The measurements presented in this section are drawn from ChEMBL document CHEMBL4507327.
